SYSTEM_UNDER_TEST: CYP1A2 (Homo sapiens, UniProt P05177)
Sequence (P05177 whole entry): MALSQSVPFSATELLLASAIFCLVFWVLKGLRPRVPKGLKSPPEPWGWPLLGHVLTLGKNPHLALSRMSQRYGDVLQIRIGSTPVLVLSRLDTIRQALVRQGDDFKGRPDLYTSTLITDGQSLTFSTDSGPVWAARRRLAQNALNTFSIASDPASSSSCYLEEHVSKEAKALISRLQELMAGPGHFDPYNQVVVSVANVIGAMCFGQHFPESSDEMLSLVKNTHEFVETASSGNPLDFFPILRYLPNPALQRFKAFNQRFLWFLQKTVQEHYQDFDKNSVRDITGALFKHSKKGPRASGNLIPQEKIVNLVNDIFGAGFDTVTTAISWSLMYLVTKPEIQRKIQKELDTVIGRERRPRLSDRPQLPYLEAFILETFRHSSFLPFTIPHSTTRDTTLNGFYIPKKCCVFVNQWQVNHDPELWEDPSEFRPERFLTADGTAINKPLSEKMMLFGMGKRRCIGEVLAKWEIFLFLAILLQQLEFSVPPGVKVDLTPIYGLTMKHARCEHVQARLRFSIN
ASSAY_TEXT: in vitro
OUTCOME_MEASURE: inhibition at 10 µM

Cc1nc2n(c(=O)c1CCN1CCC(=C3c4ccc(Cl)cc4CCc4cccnc43)CC1)CCCC2O (stereo not shown) [Compound 11c] yielded inhibition at 10 µM of < 1%

###

Tested on: CDAHFD-fed C57BL/6 J mice
ASSAY_TEXT: CDAHFD mice (12 weeks): body weight and clinical signs
Assay type: in vivo, mouse
MEASUREMENT_PARAMETERS: CDAHFD+11c 5mpk, week 3, 5 mice
OUTCOME_MEASURE: Body weight, Average (g)
All answers are understood in g, so give the number only.

The compound listed as Cc1nc2n(c(=O)c1CCN1CCC(=C3c4ccc(Cl)cc4CCc4cccnc43)CC1)CCCC2O (stereo not shown) [Compound 11c] shows Body weight, Average equal to 19.9

###

ASSAY_TEXT: Pharmacokinetic study in dogs
Format: in vivo, Beagle dogs
MEASUREMENT_PARAMETERS: male, beagle, plasma, 5 mg/kg; dog, IV (5 mpk)
Method: The experimental protocol for this study was approved by the IACUC of KPC Co., Ltd. (No. KPC IACUC-P203046; Beagle dogs) or QuBEST BIO (No.QBIACUC-A20131). All relevant ethical guidelines were followed. Beagle male dogs (11 ~ 20 months old) were purchased from ORIENT BIO Inc. and were housed in the barrier animal facility of KPC Co., Ltd. under a regular light-dark cycle (12-hour light/12-hour dark) at 21.1–23.4°C with 55.3–72.2% humidity. […]
OUTCOME_MEASURE: clearance
State the value, then name its unit.

Value of clearance reported for the compound Cc1nc2n(c(=O)c1CCN1CCC(=C3c4ccc(Cl)cc4CCc4cccnc43)CC1)CCCC2O (stereo not shown) [Compound 11c] is 7 mL/min/kg

###

System: CDAHFD-fed C57BL/6 J mice
ASSAY_TEXT: CDAHFD mice (12 weeks): body weight and clinical signs
Assay type: in vivo, mouse
MEASUREMENT_PARAMETERS: CDAHFD+11c 10mpk, week 6, 5 mice
OUTCOME_MEASURE: Body weight, Average
Answer by giving the amount and then stating its unit.

Record Cc1nc2n(c(=O)c1CCN1CCC(=C3c4ccc(Cl)cc4CCc4cccnc43)CC1)CCCC2O (stereo not shown) [Compound 11c] . Reported Body weight, Average: 21.2 g

###

ASSAY_TEXT: Pharmacokinetic study in rats
Type: in vivo, Sprague-Dawley rats
MEASUREMENT_PARAMETERS: male, Sprague-Dawley, rat, plasma, po, 5 mg/kg, PO (5 mpk)
OUTCOME_MEASURE: half-life (h)
Only the number, expressed in h, is required.

Record Cc1nc2n(c(=O)c1CCN1CCC(=C3c4ccc(Cl)cc4CCc4cccnc43)CC1)CCCC2O (stereo not shown) [Compound 11c] , field half-life: 2.5

###

SYSTEM_UNDER_TEST: 5HT2A (Homo sapiens)
Sequence (P28223 whole entry): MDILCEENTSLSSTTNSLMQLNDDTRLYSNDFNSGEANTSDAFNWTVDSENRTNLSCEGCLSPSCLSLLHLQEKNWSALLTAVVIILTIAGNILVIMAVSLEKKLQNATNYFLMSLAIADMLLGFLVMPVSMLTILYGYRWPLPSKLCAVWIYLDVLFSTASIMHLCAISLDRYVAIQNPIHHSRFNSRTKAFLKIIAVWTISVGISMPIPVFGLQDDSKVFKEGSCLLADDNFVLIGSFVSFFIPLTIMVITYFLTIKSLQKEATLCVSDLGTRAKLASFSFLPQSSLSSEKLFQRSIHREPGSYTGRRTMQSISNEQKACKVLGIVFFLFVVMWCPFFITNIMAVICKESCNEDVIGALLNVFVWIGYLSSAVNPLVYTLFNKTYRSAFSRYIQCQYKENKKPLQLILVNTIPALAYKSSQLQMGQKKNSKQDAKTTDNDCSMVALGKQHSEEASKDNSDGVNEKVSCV
ASSAY_TEXT: Human 5HT2A inhibition assay (FLIPR calcium 6, 5HT stimulus, stably transfected HEK293 cells)
Type: cell-based
Design: expressed in transfected cells; host or cells: HEK293
MEASUREMENT_PARAMETERS: 1 μM
Assign 1 whenever % Inhibition at 1 μM (SD) does not fall below 90%; assign -1 whenever it does.

Solved cases below.
{"columns": ["COMPOUND", "GROUP_LABEL"],
 "data": [
  ["O=C1Cc2cc(C(=O)CN3CCC(=C4c5ccc(Cl)cc5CCc5cccnc54)CC3)ccc2N1 [Compound 8b]", -1],
  ["Cc1nc2n(c(=O)c1CCN1CCC(=C3c4ccc(Cl)cc4CCc4cccnc43)CC1)CCC[C@H]2O (single isomer, unassigned) [22 g]", 1],
  ["O=C1Cc2cc(C(=O)CN3CCC(=C4c5ccc(Cl)cc5CCc5cccnc54)CC3)c(Cl)cc2N1 [Compound 8c]", -1],
  ["Cc1nc2n(c(=O)c1CCN1CCC(=C3c4ccc(Cl)cc4CCc4cccnc43)CC1)CCC[C@@H]2O (single isomer, unassigned) [22 f]", 1],
  ["O=c1[nH]c2ccccc2c(=O)n1CCN1CCC(=C2c3ccc(Cl)cc3CCc3cccnc32)CC1 [Compound 11d]", 1]
]}

We now examine a further compound.
Evaluate O=C1Cc2cc(CCN3CCC(=C4c5ccc(Cl)cc5CCc5cccnc54)CC3)c(Cl)cc2N1 [Compound 11a] : % Inhibition at 1 μM (SD) at minimum 90%? 1

###

ASSAY_TEXT: Pharmacokinetic study in dogs
Assay type: in vivo, Beagle dogs
MEASUREMENT_PARAMETERS: male, beagle, plasma, 5 mg/kg; dog, IV (5 mpk)
OUTCOME_MEASURE: AUC (µg·h/mL)
Supply the numeric figure in µg·h/mL, leaving out any unit text.

AUC recorded for this molecule, Cc1nc2n(c(=O)c1CCN1CCC(=C3c4ccc(Cl)cc4CCc4cccnc43)CC1)CCCC2O (stereo not shown) [Compound 11c] , is 16.8

###

ASSAY_TEXT: Pharmacokinetic study in rats
Type: in vivo, Sprague-Dawley rats
MEASUREMENT_PARAMETERS: male, Sprague-Dawley, rat, plasma, po, 10 mg/kg, PO (10 mpk)
OUTCOME_MEASURE: half-life

Lab note: measured half-life of Cc1nc2n(c(=O)c1CCN1CCC(=C3c4ccc(Cl)cc4CCc4cccnc43)CC1)CCCC2O (stereo not shown) [Compound 11c] was 2.7 h

###

Test system: CDAHFD-fed C57BL/6 J mice
ASSAY_TEXT: CDAHFD mice (12 weeks): body weight and clinical signs
Assay type: in vivo, mouse
MEASUREMENT_PARAMETERS: CDAHFD+11c 5mpk, week 10, 5 mice
OUTCOME_MEASURE: Body weight, Average (g)
Give the value in g but do not write g after it.

The compound listed as Cc1nc2n(c(=O)c1CCN1CCC(=C3c4ccc(Cl)cc4CCc4cccnc43)CC1)CCCC2O (stereo not shown) [Compound 11c] shows Body weight, Average equal to 22.2

###

Test system: CDAHFD-fed C57BL/6 J mice
ASSAY_TEXT: CDAHFD mice (12 weeks): body weight and clinical signs
Format: in vivo, mouse
MEASUREMENT_PARAMETERS: CDAHFD+11c 5mpk, week 1, 5 mice
OUTCOME_MEASURE: Body weight, Average (g)
Field: numeric (g). Do not append units.

Noted Body weight, Average for Cc1nc2n(c(=O)c1CCN1CCC(=C3c4ccc(Cl)cc4CCc4cccnc43)CC1)CCCC2O (stereo not shown) [Compound 11c] , tested on CDAHFD-fed C57BL/6 J mice: 20.6

###

ASSAY_TEXT: Pharmacokinetic study in dogs
Assay type: in vivo, Beagle dogs
MEASUREMENT_PARAMETERS: male, beagle, plasma, 5 mg/kg; dog, PO (5 mpk)
OUTCOME_MEASURE: half-life (h)
Give just the number in h; leave the unit off.

Measured half-life, Cc1nc2n(c(=O)c1CCN1CCC(=C3c4ccc(Cl)cc4CCc4cccnc43)CC1)CCCC2O (stereo not shown) [Compound 11c] : 10.2

###

ASSAY_TEXT: Hepatocyte stability test, dog
Type: in vitro ADME
MEASUREMENT_PARAMETERS: male, beagle, cryopreserved hepatocytes, pH 7.4, read-out: Hepatocyte stability (% remaining after 3 h)
OUTCOME_MEASURE: remaining at 3 h, 10 μM (%)
Field: numeric (%). Do not append units.

// recorded remaining at 3 h, 10 μM for Cc1nc2n(c(=O)c1CCN1CCC(=C3c4ccc(Cl)cc4CCc4cccnc43)CC1)CCCC2O (stereo not shown) [Compound 11c] : 88.5

###

SYSTEM_UNDER_TEST: CYP2D6 (Homo sapiens, UniProt P10635)
Sequence (P10635 whole entry): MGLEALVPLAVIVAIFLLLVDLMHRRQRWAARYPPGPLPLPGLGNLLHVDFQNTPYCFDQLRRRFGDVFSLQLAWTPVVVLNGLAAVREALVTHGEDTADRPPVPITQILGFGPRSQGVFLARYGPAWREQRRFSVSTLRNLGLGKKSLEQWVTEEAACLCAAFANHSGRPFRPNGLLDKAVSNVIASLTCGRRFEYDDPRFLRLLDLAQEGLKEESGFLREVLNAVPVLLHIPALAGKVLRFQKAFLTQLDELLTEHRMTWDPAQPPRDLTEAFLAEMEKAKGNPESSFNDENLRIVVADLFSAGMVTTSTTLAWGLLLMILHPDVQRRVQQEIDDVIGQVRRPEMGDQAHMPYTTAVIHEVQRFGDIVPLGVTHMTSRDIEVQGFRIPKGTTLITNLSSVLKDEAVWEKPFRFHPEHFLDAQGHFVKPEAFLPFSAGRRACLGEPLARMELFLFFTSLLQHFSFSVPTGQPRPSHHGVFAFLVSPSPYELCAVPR
ASSAY_TEXT: in vitro
OUTCOME_MEASURE: inhibition at 10 µM (%)
State the answer as a number, implicitly in %.

Lab book: inhibition at 10 µM of Cc1nc2n(c(=O)c1CCN1CCC(=C3c4ccc(Cl)cc4CCc4cccnc43)CC1)CCCC2O (stereo not shown) [Compound 11c] noted as 26.3

###

Tested on: CDAHFD-fed C57BL/6 J mice
ASSAY_TEXT: CDAHFD mice (12 weeks): body weight and clinical signs
Assay type: in vivo, mouse
MEASUREMENT_PARAMETERS: CDAHFD+11c 10mpk, week 3, 5 mice
OUTCOME_MEASURE: Body weight, Average (g)
Give just the numeric value; g need not be written.

Query Cc1nc2n(c(=O)c1CCN1CCC(=C3c4ccc(Cl)cc4CCc4cccnc43)CC1)CCCC2O (stereo not shown) [Compound 11c] yields Body weight, Average of 20.3

###

ASSAY_TEXT: Phase 1 clinical trial, SAD (single ascending dose) study
MEASUREMENT_PARAMETERS: human, in vivo
OUTCOME_MEASURE: half-life

# compound Cc1nc2n(c(=O)c1CCN1CCC(=C3c4ccc(Cl)cc4CCc4cccnc43)CC1)CCCC2O (stereo not shown) [Compound 11c] ; its half-life = > 10 h
